molecular target: h-GABA-A α5β3γ2 (Homo sapiens (Human), UniProt P18507+P31644); assay: [3H]flumazenil competition binding assay, membranes of HEK293 cells expressing human GABAA receptors; settings: displacement of [3H]flumazenil 0.5 nM, HEK293 cells expressing human receptors, mean of two determinations; read-out: Ki h-GABA-A α5β3γ2
property name: pKi
Remember the convention: pKi equals -log10 of concentration in molar.

Given Cc1ccc(-c2noc(C)c2COc2ccc(C(=O)N[C@@H]3C[C@@H]4CC[C@@H]3O4)nn2)cn1 (single isomer, unassigned) , state its recorded pKi.
7.73

And `Cc1ccc(-c2noc(C)c2COc2cnc(C(=O)NCC(F)(F)F)cn2)cn1` ?
7.61

And `Cc1ccc(-c2noc(C)c2COc2ccc(C(=O)N3CCOCC3)nn2)cn1` ?
7.03

And `Cc1ccc(-c2noc(C)c2COc2ccc(C(=O)N[C@H]3CCCC(F)(F)[C@@H]3O)cn2)cn1` ?
7.37

And `Cc1ccc(-c2noc(C3CC3)c2COc2ccc(C(=O)NC3(C)COC3)nn2)cn1` ?
7.49

And `CCO[C@H]1C[C@@H](NC(=O)c2ccc(OCc3c(-c4ccc(C)nc4)noc3C)nn2)C1` ?
7.74

And Cc1ccc(-c2noc(C)c2COc2ccc(C(=O)N[C@@]3(C)CCOC3)nn2)cn1 (single isomer, unassigned) ?
7.98

The origin of these recorded values is patent US20240279218A1.
